molecular target: T1, memapsin 2 (spontaneously activated promemapsin 2-T1; amino acids 43-456 and 45-456 of SEQ ID NO: 8) (human, UniProt P56817 41-454); assay: enzyme inhibition kinetics
T1 construct: The library probing says only 'recombinant memapsin 2'; also called BACE; ASP2
T1 sequence (P56817 41-454): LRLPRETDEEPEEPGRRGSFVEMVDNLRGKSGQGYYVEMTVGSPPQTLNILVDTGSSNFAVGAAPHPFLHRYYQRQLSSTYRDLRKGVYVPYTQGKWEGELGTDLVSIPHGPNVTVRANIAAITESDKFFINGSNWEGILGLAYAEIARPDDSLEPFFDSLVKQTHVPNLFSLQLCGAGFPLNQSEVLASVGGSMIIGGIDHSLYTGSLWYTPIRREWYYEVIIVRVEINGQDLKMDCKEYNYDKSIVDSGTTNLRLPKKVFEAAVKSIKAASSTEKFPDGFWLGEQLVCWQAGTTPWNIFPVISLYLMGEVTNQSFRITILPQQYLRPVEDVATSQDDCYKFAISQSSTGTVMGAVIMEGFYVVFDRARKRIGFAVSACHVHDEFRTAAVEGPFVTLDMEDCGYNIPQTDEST
Where no end group is shown, it is not given here.

| binder | Ki / nM |
| --- | --- |
| ELDLAVEF (also: hydroxyethylene isostere in place of Leu4-Ala5 peptide bond) [OM00-3 (ELDL*AVEF)] | 0.3 |
